Data origin: ChEMBL document CHEMBL1201862

Test system: 786-0
Experiment: NCI tumour cell line growth inhibition, 48 h
Active and inactive are the calls of the source. Cut-off read from the data, not from the text of the source: active = GI50 up to about 1.1 µM and inactive = higher.
Possible outcomes: active, inactive

| compound | target_of_assay | classification |
| --- | --- | --- |
| COc1ccc2nc3ccc(OC)cc3c([S+]([O-])CCCl)c2c1 (stereo unspecified) | 786-0 | inactive |
| CCN(CCCN(CC)C(=O)Nc1c(C)cccc1C)C(=O)Nc1c(C)cccc1C | 786-0 | inactive |
| O=C(c1cc2ccccc2[nH]1)N1C2CCC1CN(CCOC(c1ccc(F)cc1)c1ccc(F)cc1)CC2 (stereo unspecified) | 786-0 | inactive |
| Nc1ccc(C(=O)N/C(=C\c2cccc([N+](=O)[O-])c2)c2nc3cc(Cl)ccc3[nH]2)cc1 | 786-0 | inactive |
| C=CCN(N=O)C(=O)NCCCCC(NC(C)=O)C(=O)NCc1ccccc1 (stereo unspecified) | 786-0 | inactive |
| O=[N+]([O-])c1ccc2nc3c(nc2c1)-c1c2ccccc2cc2cccc-3c12 | 786-0 | inactive |
| COc1ccc(/C=C/C(=O)CC(=O)/C=C/c2ccc(OC)cc2)cc1 | 786-0 | inactive |
| Cc1ns/c(=N\C(=S)N(C)C)n1C | 786-0 | inactive |
| Cc1cccc(-c2cc(O)c3c(C)cc(C)nc3n2)c1 | 786-0 | inactive |
| N#C/C(=C\c1cc2ccccc2c2ccccc12)c1ccccc1 | 786-0 | inactive |
| Cc1cc(C)nc(NS(=O)(=O)c2ccc(NNc3c4ccccc4nc4c(C(=O)Nc5ccc(S(=O)(=O)N=C(N)N)cc5)cccc34)cc2)n1 | 786-0 | inactive |
| Cc1nn(-c2ccccc2)c2c1C(c1cc3ccccc3nc1Cl)NC(=S)N2 (stereo unspecified) | 786-0 | inactive |
| C/C(=C\[C@H]1C[C@@H]([C@@H]2CC[C@]34C[C@]23C=C[C@@H]2[C@@]3(C)CC=C5C[C@@H](c6ccccc6)OC[C@]5(C)[C@@H]3C[C@@H](O)[C@]24C)C(=O)O1)CO | 786-0 | inactive |
| Cc1ccc(S(=O)(=O)Nc2ccccc2C=O)cc1 | 786-0 | inactive |
| Oc1c(Br)cc(Br)cc1CN(Cc1cc(Br)cc(Br)c1O)C1CCCCC1 | 786-0 | inactive |
| COc1ccc2c(c1)[n+]([O-])c(-c1ccc(Br)cc1)c(N)[n+]2[O-] | 786-0 | inactive |
| CC(C)(C)c1cc(C2=NNC(c3ccccc3)C2)cc(C(C)(C)C)c1O (stereo unspecified) | 786-0 | inactive |
| N=C(N)n1nc2c(c1O)CCC2 | 786-0 | inactive |
| N[C@H]1CCN(c2c(F)cc3c(=O)c(C(=O)O)cn4c3c2Oc2c-4ccc3c2ccc2ccccc23)C1 | 786-0 | active |
| CCOC(=O)C(NC(=O)Nc1ccccc1)(Nc1cccc(Cl)c1)C(F)(F)F (stereo unspecified) | 786-0 | inactive |
| O=C1c2ccccc2-c2cc([N+](=O)[O-])c([N+](=O)[O-])cc21 | 786-0 | inactive |

====

System: OVCAR-5
Test: NCI tumour cell line growth inhibition, 48 h
Where a name gives a salt, the structure may show the parent alone. Activity calls are given as the source filed them. Cut-off read from the data, not from the text of the source: active = GI50 up to about 1.1 µM and inactive = higher. Non-standard residues stand in square brackets, D forms with d. Residues, ends and D or L forms follow the SMILES beside them. β3hI = CC[CH](C)[CH](N)CC(=O)O

| molecule | target_of_assay | GI50 |
| --- | --- | --- |
| O=C1C2=Nc3ccccc3C(O)(C(=O)O)N2c2ccccc21 (stereo not drawn) | OVCAR-5 | 34.8 µM (inactive) |
| CCCCCC(=O)OCCOCCOCCOCCOCCOCc1ccccc1 | OVCAR-5 | > 100 µM (inactive) |
| C[N+](C)(C)CCOP(=O)(O)OP(=O)([O-])OCC1CCC(n2ccc(N)nc2=O)O1 (stereo not drawn) | OVCAR-5 | > 100 µM (inactive) |
| CCN(CC)CCNc1ccc(C)c2sc3ccccc3c(=O)c12 [LUCANTHONE HYDROCHLORIDE] | OVCAR-5 | 3.05 µM (inactive) |
| C=CCOc1ccc2c(C)cc(=O)oc2c1C | OVCAR-5 | > 100 µM (inactive) |
| N#CC(C#N)/N=N/c1ccc(-c2nc3ccccc3o2)cc1 | OVCAR-5 | 17.4 µM (inactive) |
| O=C(O)CCC(NC(=O)c1ccc(Nc2cnc3ccc(C(F)(F)F)cc3n2)cc1)C(=O)O (stereo not drawn) | OVCAR-5 | > 100 µM (inactive) |
| CCC(C)C(CC(=O)N1CCCC1C(=O)NC(C(=O)NC(C(=O)NCC(=O)NC(CC(N)=O)C(=O)NC(C(=O)NC(C(=O)NC(CCCCN)C(N)=O)C(C)CC)C(C)CC)C(C)C)C(C)CC)NC(=O)C(N)C(C)CC (stereo not drawn) (H-I[β3hI]PIVGNIIK-NH2; configuration not given here) | OVCAR-5 | > 50 µM (inactive) |

====

Here the recorded GI50 is given for each entry.
System: NCI-H226
Assay: NCI tumour cell line growth inhibition, 48 h
The source made the active and inactive calls. Rule as the data show it: active = GI50 up to about 1.1 µM and inactive = higher.
measured_attribute: GI50

| compound | measured |
| --- | --- |
| Cc1nnc(N2C(=O)C(=Cc3ccc(Cl)cc3)N=C2c2ccc(Cl)cc2)nc1/C=C\c1ccc(N(C)C)cc1 | > 100 µM (inactive) |
| CCC1(c2ccccc2)C(=O)N=C(c2ccccc2)N1CCc1ccccc1 (centres undefined) | > 100 µM (inactive) |
| O=C1C=CC2CCC1C2 (centres undefined) | 39.4 µM (inactive) |
| CCCCCCCCCCCC[N+](CCCCCCCCCCCC)=C1SCCS1 | 14.2 µM (inactive) |
| Cc1cc(=O)[nH]c(-n2[nH]c(C)c(CCO)c2=O)n1 | > 100 µM (inactive) |
| O=C(Nc1ccc2ncccc2c1)Nc1ccc2ncccc2c1 | > 100 µM (inactive) |
| CCCCCCCCCCCCOC1C(COCCN2CCCC2)OC2OC(C)(C)OC21 (centres undefined) | 2.56 µM (inactive) |
| COC1=CC(=O)C=C(OC)C1=O | 1.55 µM (inactive) |
| Oc1ccc(Cl)cc1/N=N\c1c(O)ccc2ccccc12 | > 100 µM (inactive) |
| O=C1C=CC(=O)N1n1c(Cc2ccccc2)n[nH]c1=O | > 100 µM (inactive) |
| NC(=S)NN=Cc1ccccc1OCc1cccc(COc2ccccc2C=NNC(N)=S)n1 | > 34.4 µM (inactive) |
| CC(C)N1C(C)[C@@H](c2ccccc2)O[P@]1(=O)CC1=CCCCC1 (some centres undefined) | > 100 µM (inactive) |
| CN(C)c1ccc(N2C(=S)SC(=N\c3ccccc3)/C2=N/c2ccccc2)cc1 | > 100 µM (inactive) |
| CC(C)c1ccccc1SCc1cc(=O)cc(CSc2ccccc2C(C)C)o1 | 21.2 µM (inactive) |
| CC(C)(C)c1cc(C2=NNC(c3ccccc3)C2)cc(C(C)(C)C)c1O (centres undefined) | 17.2 µM (inactive) |
| Cc1ccc(S(=O)(=O)n2c3ccc(Br)cc3c3nc4ccccc4nc32)cc1 | 0.183 µM (active) |
| CCOc1cc2c[n+](C)c3c4cc(OC)c(OC)cc4ccc3c2cc1OC | > 100 µM (inactive) |
| CCOC(=O)C(=O)Nc1c(C)cccc1C(C)C | > 100 µM (inactive) |
| COC(=O)c1cc(C(=O)OC)cc(-c2ccc3c(c2)-c2nc4c(c(-c5ccc(OC)cc5)c2CC3)CCc2ccc(-c3cc(C(=O)OC)cc(C(=O)OC)c3)cc2-4)c1 | > 100 µM (inactive) |
| Cc1ccc(C)c(NC(=O)C(=O)C2C(=O)N(c3ccccc3)N=C2N)c1 (centres undefined) | > 100 µM (inactive) |
| O=[N+]([O-])c1ccc(/N=N\c2c(O)ccc3ccccc23)c([N+](=O)[O-])c1 | > 100 µM (inactive) |
| Cc1[nH]c2cc([N+](=O)[O-])ccc2c1[N+](=O)[O-] | 14.2 µM (inactive) |
| c1cc2nnc1SCCSCCSc1ccc(nn1)SCCSCCS2 | > 100 µM (inactive) |
| Cc1ccsc1C(=S)Nc1ccc(Cl)c(/C=N/OC(C)C)c1 | 31.3 µM (inactive) |

====

Here the recorded GI50 is given for each entry.
Test system: EKVX
Assay: NCI tumour cell line growth inhibition, 48 h
Active and inactive are the calls of the source. Rule as the data show it: active = GI50 up to about 1.1 µM and inactive = higher. *1 amine or outer side, *2 acyl side, *3 side chain or, on linkers, in order; H or OH if unused. Where a SMILES comes first, the peptide text is derived from it. Bridges are numbered along the chain shown (N, C = ends). [ ]: non-standard residue; d: D form. ξ: configuration not given here. X10 = CCC(C)C(N[*:1])C(O)CC(=O)O[C@H](C(=O)C(C)C(=O)[*:2])C(C)C; NMeY = CN[C@@H](Cc1ccc(O)cc1)C(=O)O; ξNMeL = CNC(CC(C)C)C(=O)O; ξT = CC(O)C(N)C(=O)O

| compound | target_of_assay | GI50 |
| --- | --- | --- |
| CC1C(c2ccc3c(c2)OCO3)c2cc3c(cc2OC1N1CCCCC1)OCO3 (centres undefined) | EKVX | 66.2 µM (inactive) |
| CCC(C)NC(=S)N/N=C(\C)c1nc2cccnc2[nH]1 (centres undefined) | EKVX | 6.73 µM (inactive) |
| CCOC(=O)C(C(=O)COC(C)(C)C)[C@@H]1C=C[C@H](OC(C)=O)C1 (some centres undefined) | EKVX | > 100 µM (inactive) |
| CCC(C)C1NC(=O)C(NC(=O)C(CC(C)C)N(C)C(=O)[C@@H]2CCCN2)C(C)OC(=O)[C@H](Cc2ccc(OC)cc2)N(C)C(=O)[C@@H]2CCCN2C(=O)[C@H](CC(C)C)NC(=O)C(C)C(=O)[C@H](C(C)C)OC(=O)CC1O (some centres undefined) (H-P[ξNMeL][ξT][X10]LP[NMeY](Me); ester 3-C) | EKVX | < 0.01 µM (active) |
